Counter-ions that a name gives are not always drawn.
Each record here notes measured melting point.

// worked examples, melting point included
COc1cc2cc3c(Nc4ccc(Sc5nccn5C)c(Cl)c4)c(C#N)cnc3cc2cc1OCCN1CCOCC1 [Example 17] ... > 300 °C
COc1cc2cc3c(Nc4ccc(Sc5nccn5C)c(Cl)c4)c(C#N)cnc3cc2cc1O [Example 15] ... > 300 °C
COc1cc2cc(C(=O)OC(C)(C)C)c(N)cc2cc1OCc1ccccc1 [Example 7] ... 179 to 180 °C
COc1cc2cc3c(=O)c(C#N)c[nH]c3cc2cc1O [Example 13] ... > 300 °C
COc1cc2cc(C(=O)OC(C)(C)C)c(N)cc2cc1O [Example 9] ... 262 to 263 °C
COc1cc2cc3c(Nc4ccc(Sc5nccn5C)c(Cl)c4)c(C#N)cnc3cc2cc1OCCn1ccnn1 [Example 22] ... 201 to 207 °C

Lookup result for COc1cc2c(cc1OCc1ccccc1)C(C#N)(Sc1ccccc1)C2 (stereo not drawn) [Example 5] ; measured melting point: 109 to 110 °C

Looking up COc1cc2cc(C(=O)OC(C)(C)C)c(N)cc2cc1OCCN1CCOCC1 [Example 10] , I found its melting point recorded as 125 to 127 °C

response.value for COc1cc2c(cc1OCc1ccccc1)C(C#N)C2 (stereo not drawn) [Example 3] (field: melting point) = 85 °C

get_value(item= COc1cc2c(cc1OCc1ccccc1)C(C#N)(Sc1ccc(Cl)cc1)C2 (stereo not drawn) [Example 4] , readout=melting point) returns 114 to 115 °C

Lab book: melting point of COc1cc2cc3c(=O)c(C#N)c[nH]c3cc2cc1OCCN1CCOCC1 [Example 12] noted as 275 °C (dec.)

Looking up COc1cc2cc3c(Cl)ncnc3cc2cc1OCCN1CCOCC1 [Example 31] , I found its melting point recorded as 166 to 168 °C

Record COc1cc(CBr)c(Br)cc1OCc1ccccc1 [Example 1] . Reported melting point: 103 to 105 °C

Memo: COc1cc2cc3c(=O)[nH]cnc3cc2cc1OCCN1CCOCC1 [Example 11] , reported melting point: 230 to 232 °C

Measured melting point, COc1cc(Nc2c(C#N)cnc3cc4cc(OCCCN5CCOCC5)c(OC)cc4cc23)c(Cl)cc1Cl [Example 25] : 205 to 208 °C

molecule COc1cc2cc3c(Nc4ccc(Br)cc4F)ncnc3cc2cc1OCCN1CCOCC1 (as salt: hydrochloride) [Example 32] , melting point observed: 210 to 225 °C

Data point: COc1cc(Nc2c(C#N)cnc3cc4cc(OCCCCl)c(OC)cc4cc23)c(Cl)cc1Cl [Example 24] ; melting point = 220 to 223 °C

So, COc1cc(CCC#N)c(Br)cc1OCc1ccccc1 [Example 2] ? Its melting point was 52 to 53 °C

###

Counter-ions that a name gives are not always drawn.
value-kind: melting point

Please review the following examples before continuing.
COc1cc(Nc2ncnc3cc4cc(OCc5ccccc5)c(OC)cc4cc23)c(Cl)cc1Cl [Example 30] ... 275 to 280 °C
COc1cc2cc(C#N)c(N)cc2cc1OCc1ccccc1 [Example 29] ... 241 to 243 °C
COc1cc2cc3c(Cl)c(C#N)cnc3cc2cc1O [Example 14] ... > 300 °C

The recorded melting point for entry COc1cc(Nc2ncnc3cc4cc(OCCN5CCOCC5)c(OC)cc4cc23)c(Cl)cc1Cl (as salt: hydrochloride) [Example 33] equals 258 to 260 °C

melting point recorded for this molecule, COc1cc2cc3c(=O)c(C#N)c[nH]c3cc2cc1OCc1ccccc1 [Example 8] , is > 300 °C
